Listed variants paired with reported polymerase ribozyme fitness (log ratio)
B1: TPR t1 (parent)
chain: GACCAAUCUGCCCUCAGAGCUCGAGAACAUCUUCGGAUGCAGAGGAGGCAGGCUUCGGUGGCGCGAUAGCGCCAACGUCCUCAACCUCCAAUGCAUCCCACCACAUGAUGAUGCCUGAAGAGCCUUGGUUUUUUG

# Variants of: B1
# protocol: polymerase ribozyme fitness, log enrichment relative to wild type (log ratio); higher = more active; in vitro selection for triplet polymerase activity

{"columns": ["change", "polymerase ribozyme fitness (log ratio)"],
 "data": [
  ["C20U U33A", -5.51],
  ["C70U C97G", -5.32],
  ["A68C A84U U112G G117C", -7.28],
  ["C53A G127U U129A", -0.623],
  ["A29U C53U C56U G69U G93C", -3.98],
  ["G51U C72U", -3.99],
  ["C15A G61A A83U G117C", -5.31],
  ["C20A G23A G36A G48A G113A", -7.55],
  ["C3U C13U G57U C79U A100C", -0.594],
  ["C12U U78A A108U G120C", -5.26],
  ["C53A A68G", -2.61],
  ["A46U G127C", -2.68],
  ["U14A A24C C49G C72U U92C G113U U116A", -6.78],
  ["G45U C115A G128U", -4.73],
  ["U33C C99U C123A", -7.51],
  ["G19C C40U G48U G110C", -6.52],
  ["C114G G135U", -2.93]
]}
